Every entry's value here was drawn from the supplement of paper PMC10567573.

B1: INTS3 (parent)
chain: FSDDEEDLNSKGKKREFRFHPIKE

# Variants of: B1
# ASSAY_SUMMARY: protein stability index of a GFP-peptide fusion (GPS, HEK-293T) (PSI 1-6); higher = more stable;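 also: lentivirally expressed fusions sorted by FACS into six bins by GFP to DsRed ratio, PSI derived from sequencing read proportions per bin multiplied by bin number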
# CONDITION_CONTEXT: c terminus: a fixed tail appended
MEASUREMENT_NAME: protein stability index
API doc: respond with a numeric literal and nothing else, no unit.

Consider the following illustrative entries.
• D3K = 2.59
• H20V = 3.92
• F1P = 3.19
• E6R = 2.07
• E5Y = 2.29

Exercise: What value of protein stability index has been reported for the following variant? "H20M"
Key: 4.83

Exercise: Quick one: protein stability index for "F17K" ?
Key: 5.12

Exercise: State the recorded protein stability index for this entry: "N9F"
Key: 2.31

Exercise: Please give the measured protein stability index for this variant: "F19K"
Key: 5.4

Exercise: What value of protein stability index has been reported for the following variant? "I22A"
Key: 2.88

Exercise: Fill in the blank: the reported protein stability index of "P21E" is ____.
Key: 4

Exercise: Please look up its protein stability index: "E16P"
Key: 2.17
